Target: human APJ receptor (Homo sapiens)
Construct: expressed in transfected cells; host or cells: HEK293
Assay: Intracellular cAMP accumulation assay (APJ hcAMP, HTRF)
Format: cell-based
Details: HEK293 cells stably expressing human APJ receptor; inhibition of forskolin-mediated cAMP production; read-out: APJ cAMP Potency range
In this section we review reported EC50 values for a set of compounds.

CCc1cccc(CC)c1-n1c(-c2ccn(CC)n2)nc(=O)c(Cc2ccc(-c3ccc(F)nc3C)c(F)c2)c1O 0.01 to 10 nM
CCc1cccc(CC)c1-n1c(-c2csc(C)n2)nc(=O)c(Cc2ccc(-c3ccnc(F)c3C)c(F)c2)c1O 0.01 to 10 nM
CCCCc1nc(O)c(Cc2ccc(-c3ncon3)c(F)c2)c(=O)n1-c1c(OC)cccc1OC 0.01 to 10 nM

## Input Recall the recorded EC50 for "CCCCc1nc(=O)c(Cc2cccc(-c3ccc(F)cc3C(N)=O)c2)c(O)n1[C@@H](CC)c1cc(F)cc(F)c1" with human APJ receptor (Homo sapiens) and state it.
## Output 10 to 100 nM

---

Target: human APJ receptor (Homo sapiens, UniProt P35414)
Construct: expressed in transfected cells; host or cells: HEK293
Assay: Intracellular cAMP accumulation assay (APJ hcAMP, HTRF)
Format: cell-based
Conditions: HEK293 cells stably expressing human APJ receptor; inhibition of forskolin-mediated cAMP production; read-out: APJ cAMP Potency range
Procedure: Intracellular cAMP Accumulation Assay HEK293 cells stably expressing human APJ receptor were used to assess the activity of compounds. Cultured cells were detached and resuspended in the cAMP Homogeneous Time-Resolved Fluorescence (HTRF) assay buffer (Cisbio cat; #62AM4PEJ). […] The fluorescence emission ratio was measured using fluorometer. […] The biological activity of the exemplified compounds of this invention determined by the assay described above is shown at the end of each example.
MEASURED_PROPERTY: EC50

Use these answered entries as a reference point.
CCOCc1nc(O)c(Cc2ccc(-c3ncon3)cc2)c(=O)n1-c1c(OC)cccc1OC 10 to 100 nM
COc1cccc(OC)c1-n1c(CCC2CC2)nc(O)c(Cc2ccc(-n3ccccc3=O)cc2)c1=O 0.01 to 10 nM
CCCCc1nc(=O)c(Cc2cccc(-c3ccc(F)nc3C)c2)c(O)n1[C@@H](CC)c1cc(F)cc(F)c1 0.01 to 10 nM
CCc1cccc(CC)c1-n1c(-c2ccn(CC)n2)nc(=O)c(Cc2ccc(-c3ccncc3C)c(F)c2)c1O 0.01 to 10 nM
CC[C@@H](c1ccccc1)n1c(-c2nc(C)cs2)nc(=O)c(Cc2ccc(-c3ccc(F)cc3C(N)=O)c(F)c2)c1O 0.01 to 10 nM

## Input Would you mind telling me what EC50 value was observed for "COc1cccc(OC)c1-n1c(CCC(C)C)nc(O)c(Cc2ccc(-n3cc(Cl)ccc3=O)cc2)c1=O" ?
## Output 0.01 to 10 nM

## Input Would you mind doing "CCCCc1nc(O)c(Cc2cnn(-c3ccc(C)cc3)c2)c(=O)n1-c1c(OC)cccc1OC" as well?
## Output 0.01 to 10 nM

---

Molecular target: human APJ receptor (Homo sapiens, UniProt P35414)
Construct: expressed in transfected cells; host or cells: HEK293
Assay: Intracellular cAMP accumulation assay (APJ hcAMP, HTRF)
Format: cell-based
Settings: HEK293 cells stably expressing human APJ receptor; inhibition of forskolin-mediated cAMP production; read-out: APJ cAMP Potency range
pEC50: −log10 of the molar value.
MEASURED_PROPERTY: pEC50

Would you please look over these solved cases?
COMPOUND	RESULT
CCCCc1nc(O)c(Cc2ccc(-n3ccc(C)cc3=O)cc2)c(=O)n1-c1c(OC)cccc1OC	8.00 to 11.00
CCCCc1nc(=O)c(Cc2ccc(-c3ccncc3C)cc2)c(O)n1[C@@H](CC)c1cccc(F)c1	8.00 to 11.00
CCCCc1nc(O)c(Cc2ccc(OC)cc2)c(=O)n1-c1c(OC)cccc1OC	7.00 to 8.00

## Input State the recorded pEC50 for this entry: "COc1cccc(OC)c1-n1c(CCC2CC2)nc(O)c(Cc2ccc(-n3cc(Cl)ccc3=O)cc2)c1=O"
## Output 8.00 to 11.00

## Input // next record "CCOCc1nc(O)c(Cc2coc(-c3ccc(Cl)cc3)n2)c(=O)n1-c1c(OC)cccc1OC"
## Output 7.00 to 8.00

## Input And for "CCCCc1nc(O)c(Cc2ccc(-c3ccccc3)cc2)c(=O)n1-c1c(OC)cccc1OC" ?
## Output 8.00 to 11.00

## Input Repeat for the following compound: "CCCCc1nc(=O)c(Cc2ccc(-c3ccc(F)nc3)cc2)c(O)n1-c1c(CC)cccc1CC"
## Output 8.00 to 11.00

## Input Next record, please: CCCCc1nc(=O)c(Cc2ccc(C3CC3)cc2)c(O)n1[C@@H](CC)c1cccc(C#N)c1 [Example 102]
## Output 7.00 to 8.00

## Input Queued: "CC[C@@H](c1cc(F)cc(F)c1)n1c(-c2ccn(CC)n2)nc(=O)c(Cc2ccc(-c3cccnc3C)cc2)c1O"
## Output 8.00 to 11.00

## Input Please do the same for "CCCCc1nc(O)c(Cc2ccc(Cn3cccn3)cc2)c(=O)n1-c1c(OC)cccc1OC" as well.
## Output 8.00 to 11.00

## Input Please answer likewise for "CCCCc1nc(O)c(Cc2ccc(OC)cc2)c(=O)n1-c1ccccc1OC"
## Output 6.52 to 7.00

## Input Similarly, "CCc1cccc(CC)c1-n1c(-c2nc(C)cs2)nc(=O)c(Cc2ccc(-c3ccncc3C)c(F)c2)c1O" ?
## Output 8.00 to 11.00

## Input Also "CCCCc1nc(=O)c(Cc2ccc(-c3ccnc(F)c3C)cc2)c(O)n1-c1c(CC)cccc1CC" , if possible.
## Output 8.00 to 11.00

## Input What about this compound? "CCCCc1nc(=O)c(Cc2ccc(-c3ccc(F)nc3)cc2)c(O)n1[C@@H](CC)c1cccc(C#N)c1"
## Output 8.00 to 11.00

## Input How about this compound: "COc1cccc(OC)c1-n1c(CCC(C)C)nc(O)c(Cc2ccc(NC(C)=O)cc2)c1=O"
## Output 7.00 to 8.00

## Input Then this compound: "CCCCc1nc(O)c(Cc2ccc(-n3cc(Cl)ccc3=O)cc2)c(=O)n1-c1c(OC)cccc1OC"
## Output 8.00 to 11.00

---

Target: human APJ receptor (Homo sapiens, UniProt P35414)
Construct: expressed in transfected cells; host or cells: HEK293
Sequence (P35414 1-380): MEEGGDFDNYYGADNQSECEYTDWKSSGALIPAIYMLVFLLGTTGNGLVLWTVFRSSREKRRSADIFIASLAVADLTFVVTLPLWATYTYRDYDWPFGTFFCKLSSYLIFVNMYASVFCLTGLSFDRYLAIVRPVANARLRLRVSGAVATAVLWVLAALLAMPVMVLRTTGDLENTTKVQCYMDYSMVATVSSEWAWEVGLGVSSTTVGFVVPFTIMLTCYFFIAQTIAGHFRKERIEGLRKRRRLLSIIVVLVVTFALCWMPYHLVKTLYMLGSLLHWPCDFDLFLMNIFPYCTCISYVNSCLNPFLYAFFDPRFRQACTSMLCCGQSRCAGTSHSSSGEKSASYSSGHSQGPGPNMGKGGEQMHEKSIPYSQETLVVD
Test: Intracellular cAMP accumulation assay (APJ hcAMP, HTRF)
Format: cell-based
Conditions: HEK293 cells stably expressing human APJ receptor; inhibition of forskolin-mediated cAMP production; read-out: APJ cAMP Potency range
pEC50: −log10 of the molar value.
MEASURED_PROPERTY: pEC50

# example entries with known answers
CC(C)OCc1nc(=O)c(Cc2ccc(-c3ccc(F)cc3C(N)=O)cc2)c(O)n1[C@H](c1cc(F)cc(F)c1)C(C)C 8.00 to 11.00
CCCCc1nc(=O)c(Cc2ccc(-c3ccc(F)nc3C)cc2)c(O)n1-c1c(CC)cccc1CC 8.00 to 11.00
CCCCc1nc(O)c(Cc2cc(C)on2)c(=O)n1-c1c(OC)cccc1OC 7.00 to 8.00

## Input Recorded pEC50 of "CC[C@@H](c1cc(F)cc(F)c1)n1c(COC(C)C)nc(=O)c(Cc2ccc(-c3ccc(F)nc3C)cc2)c1O" , please.
## Output 8.00 to 11.00

## Input Input "CC[C@@H](c1cc(F)cc(F)c1)n1c(-c2ccn(CC)n2)nc(=O)c(Cc2ccc(-c3ccncc3C)cc2)c1O"
## Output 8.00 to 11.00

## Input Then what about the compound "CC[C@@H](c1cc(F)cc(F)c1)n1c(-c2ccn(CC)n2)nc(=O)c(Cc2ccc(-c3ccnc(F)c3C)cc2)c1O" ?
## Output 8.00 to 11.00

## Input Then "CCc1cccc(CC)c1-n1c(-c2ccn(C(C)C)n2)nc(=O)c(Cc2ccc(-c3cccn(C)c3=O)c(F)c2)c1O" ?
## Output 8.00 to 11.00

## Input // repeat for "CCOCc1nc(=O)c(Cc2ccc(-c3ccc(F)nc3C)cc2)c(O)n1[C@@H](COC)c1cc(F)cc(F)c1" and report
## Output 8.00 to 11.00

## Input Same for "CCCCc1nc(=O)c(Cc2ccc(-c3ccncc3C)cc2)c(O)n1[C@@H](CC)c1cccc(C#N)c1"
## Output 8.00 to 11.00

## Input Now consider "COc1cccc(OC)c1-n1c(CCC(C)C)nc(O)c(Cc2ccc(-c3ncon3)cc2)c1=O" .
## Output 7.00 to 8.00

## Input For "CCCCc1nc(=O)c(Cc2cccc(-c3cccnc3C)c2)c(O)n1[C@@H](CC)c1cc(F)cc(F)c1" then?
## Output 7.00 to 8.00

## Input Now consider "CCCCc1nc(O)c(Cc2ccc(N3CCCCC3=O)cc2)c(=O)n1-c1c(OC)cccc1OC" .
## Output 8.00 to 11.00

## Input Queued: "CCCCc1nc(O)c(Cc2ccc(-c3nc(C)no3)cc2)c(=O)n1-c1c(OC)cccc1OC"
## Output 8.00 to 11.00

## Input Try this compound next: "CCCCc1nc(=O)c(Cc2ccc(-c3cccnc3C)cc2)c(O)n1[C@@H](CC)c1cccc(C#N)c1"
## Output 8.00 to 11.00

## Input Could you do the same for "COc1cccc(OC)c1-n1c(COC2CCC2)nc(O)c(Cc2ccc(-n3ccccc3=O)cc2)c1=O" , please?
## Output 8.00 to 11.00
